- EXPERIMENTAL_TARGET: UniProt:P16257
- Sequence (P16257 whole entry, looked up): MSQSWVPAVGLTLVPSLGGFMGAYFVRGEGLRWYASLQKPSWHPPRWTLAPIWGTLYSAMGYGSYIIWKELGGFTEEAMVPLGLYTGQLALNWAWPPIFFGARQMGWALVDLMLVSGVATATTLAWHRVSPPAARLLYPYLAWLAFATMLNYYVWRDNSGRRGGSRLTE
RECORDED_METRIC: Ki (nM)
Provide the reading as a plain figure in nM.

# value lookup — system UniProt:P16257, readout Ki, item `CCCCN(CCCC)C(=O)C(=O)c1c(-c2ccc(O)cc2)[nH]c2ccccc12`
25.7

Quick one: `CCCN(CCC)C(=O)C(=O)c1c(-c2ccc(N)cc2)[nH]c2ccccc12`
44.4

Quick one: `CCCN(CCC)C(=O)C(=O)c1c(-c2ccc(O)cc2)[nH]c2ccccc12`
16.1

Quick one: `CCCCCCN(CCCCCC)C(=O)C(=O)c1c(-c2ccc(C(=O)OC)cc2)[nH]c2ccccc12`
3.3

Quick one: `CCCN(CCC)C(=O)C(=O)c1c(-c2ccc(OC)cc2)[nH]c2ccccc12`
5.8

Quick one: `CCCCCCN(CCCCCC)C(=O)C(=O)c1c(-c2ccsc2)[nH]c2ccccc12`
0.89

Quick one: `CCCN(CCC)C(=O)C(=O)c1c(-c2ccsc2)[nH]c2ccccc12`
1.2

Quick one: `CCCN(CCC)C(=O)C(=O)c1c(-c2ccc(-c3ccccc3)cc2)[nH]c2ccccc12`
0.53

Quick one: `CCCCN(CCCC)C(=O)C(=O)c1c(-c2ccc3ccccc3c2)[nH]c2ccccc12`
0.54

Quick one: `CCCCCCN(CCCCCC)C(=O)C(=O)c1c(-c2ccc3ccccc3c2)[nH]c2ccccc12`
0.52

Quick one: `CCCCN(CCCC)C(=O)C(=O)c1c(-c2ccc(C(=O)O)cc2)[nH]c2ccccc12`
406

Quick one: `CCCCCCN(CCCCCC)C(=O)C(=O)c1c(-c2ccc(OC)cc2)[nH]c2ccccc12`
4

Quick one: `CCCCN(C)C(=O)C(=O)c1c(-c2ccc3ccccc3c2)[nH]c2ccccc12`
0.56

Quick one: `CCCCCCN(CCCCCC)C(=O)C(=O)c1c(-c2ccc(N)cc2)[nH]c2ccccc12`
4.2

Quick one: `CCCN(CCC)C(=O)C(=O)c1c(-c2ccc(C(=O)O)cc2)[nH]c2ccccc12`
343

Quick one: `CCCCCN(C)C(=O)C(=O)c1c(-c2ccc3ccccc3c2)[nH]c2ccccc12`
0.37

Quick one: `CCCCN(CCCC)C(=O)C(=O)c1c(-c2ccc(C(=O)OC)cc2)[nH]c2ccccc12`
2.7
